All figures here come from patent US10981879B2.

- tgt: myeloperoxidase (MPO) (Homo sapiens (Human), UniProt P05164)
- Sequence (P05164 49-745): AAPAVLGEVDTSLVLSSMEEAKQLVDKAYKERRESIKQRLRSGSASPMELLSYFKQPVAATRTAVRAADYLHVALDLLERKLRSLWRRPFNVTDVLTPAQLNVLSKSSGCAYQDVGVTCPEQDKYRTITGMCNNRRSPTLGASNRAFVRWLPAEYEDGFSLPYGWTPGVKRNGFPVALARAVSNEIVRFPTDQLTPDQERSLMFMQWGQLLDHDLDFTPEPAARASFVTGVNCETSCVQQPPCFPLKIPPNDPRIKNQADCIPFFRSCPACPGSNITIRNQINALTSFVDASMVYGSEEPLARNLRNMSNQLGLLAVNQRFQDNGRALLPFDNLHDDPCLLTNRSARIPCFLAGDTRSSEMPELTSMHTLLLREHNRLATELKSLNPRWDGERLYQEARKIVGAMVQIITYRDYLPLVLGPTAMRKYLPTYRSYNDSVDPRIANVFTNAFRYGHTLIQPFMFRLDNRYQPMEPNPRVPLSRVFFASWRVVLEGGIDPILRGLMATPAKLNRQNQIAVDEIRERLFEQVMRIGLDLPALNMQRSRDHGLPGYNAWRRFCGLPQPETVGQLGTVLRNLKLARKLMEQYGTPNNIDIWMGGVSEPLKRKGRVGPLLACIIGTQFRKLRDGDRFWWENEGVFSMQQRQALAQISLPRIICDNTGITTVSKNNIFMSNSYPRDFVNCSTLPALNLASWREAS
- method_notes: MPO chlorination assay (APF)
- Type: biochemical
- assay_context: MPO chlorination assay, ranges given; read-out: MPO chlorination assay IC50
measurement_name: IC50

Ask: Quick one: IC50 of NC(=O)c1ccc(CSc2cc(N)nc3[nH]nnc23)c(F)c1 [Example 120] ?
Reply: 200 to 1000 nM

====

- tgt: myeloperoxidase (MPO) (Homo sapiens (Human), UniProt P05164)
- method_notes: MPO chlorination assay (APF)
- Format: biochemical
- assay_context: MPO chlorination assay (APF), Table 1; read-out: APF IC50
pIC50: −log10 of the molar value.
measurement_name: pIC50

CC(Sc1cc(N)nc2[nH]nnc12)c1ccccc1 (stereo not drawn) : 8.00

[P] Cc1nn(-c2ccccc2)c(Cl)c1CSc1cc(N)nc2[nH]nnc12
[Q] Nc1cc(SCc2ccccc2-n2cccn2)c2nn[nH]c2n1
Ask: Task for the reader: decide whether P or Q has the larger pIC50. Mark your selection by writing its label.
Reply: P
(P: 8.15, Q: 7.10)

====

IC50 listing for selected compounds.
- tgt: myeloperoxidase (MPO) (Homo sapiens (Human))
- method_notes: MPO chlorination assay (APF)
- Format: biochemical
- assay_context: MPO chlorination assay, ranges given; read-out: MPO chlorination assay IC50

Check out these entries, answers already filled in.
Nc1cc(SCc2ccccc2OC(F)(F)F)c2nn[nH]c2n1 : ≤ 0.06 µM
N#Cc1ccc(F)cc1CSc1nc(N)nc2[nH]nnc12 : 0.2 to 1 µM
Cn1nc(C(F)(F)F)c(CSc2cc(N)nc3[nH]nnc23)c1Cl : ≤ 0.06 µM
N#Cc1ncccc1CSc1cc(N)nc2[nH]nnc12 : 0.06 to 0.2 µM

Ask: Quick one: IC50 of CCn1nc(C(F)(F)F)cc1CSc1cc(N)nc2[nH]nnc12 ?
Reply: 0.2 to 1 µM

====

- tgt: myeloperoxidase (MPO) (Homo sapiens (Human), UniProt P05164)
- method_notes: MPO chlorination assay (APF)
- Assay type: biochemical
- assay_context: MPO chlorination assay, ranges given; read-out: MPO chlorination assay IC50
measurement_name: IC50

Nc1cc(SCc2cc(OC(F)(F)F)ccc2F)c2nn[nH]c2n1 [Example 49] : 60 to 200 nM
Nc1cc(SC(CNCc2ccccc2)c2ccccc2)c2nn[nH]c2n1 (stereo not drawn) [Example 128] : 60 to 200 nM
N#Cc1ccc(-n2cccn2)c(CSc2cc(N)nc3[nH]nnc23)c1 [Example 132] : 60 to 200 nM
Nc1cc(SC(C(=O)c2ccccc2)c2ccccc2)c2nn[nH]c2n1 (stereo not drawn) [Example 40] : 200 to 1000 nM

Ask: Quick one: IC50 of CC(Sc1cc(N)nc2[nH]nnc12)c1ccccc1C(F)(F)F (stereo not drawn) [Example 30] ?
Reply: 60 to 200 nM

Ask: Again, but for Nc1cc(SCc2cn(-c3ccccc3)nn2)c2nn[nH]c2n1 [Example 34]
Reply: 60 to 200 nM
